# TARGET_UNDER_TEST: cyclophilin B (CypB) (Homo sapiens (Human), UniProt P23284)
# Sequence (P23284 34-216): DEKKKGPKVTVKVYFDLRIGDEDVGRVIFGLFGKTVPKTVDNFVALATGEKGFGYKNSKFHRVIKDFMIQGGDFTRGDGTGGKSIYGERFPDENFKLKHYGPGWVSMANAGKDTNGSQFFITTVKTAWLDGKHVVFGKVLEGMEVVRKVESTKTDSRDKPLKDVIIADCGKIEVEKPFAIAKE
# TEST_PROTOCOL: Inhibitor binding to cyclophilin proteins by SPR, CypB
# Parameters: unit not given here
# TEST_CONDITIONS: 1:1 binding model
Starred links: 1 amine or outer side, 2 acyl side, 3 side chain; linkers in the order of their positions; H or OH if unused. Non-standard residues stand in square brackets, D forms with d. Residues, ends and D or L forms follow the SMILES beside them. X56 = CCN1CCN(C(=O)OC[C@@H](C)[C@@H](C(=O)[*:2])N(C)[*:1])CC1; X70 = C[C@H](CCCOC(=O)N1CCN(C)CC1)[C@@H](C(=O)[*:2])N(C)[*:1]; X60 = C[C@H](CCCN1CC2CCC(C1)N2C)[C@@H](C(=O)[*:2])N(C)[*:1]; X52 = C[C@H](CCC(=O)N1CCOCC1)[C@@H](C(=O)[*:2])N(C)[*:1]; MeBmt = C/C=C/C[C@@H](C)[C@@H](O)[C@H](NC)C(=O)O; X24 = C[C@H](CO)[C@@H](C(=O)[*:2])N(C)[*:1]; X15 = COCC(COC)[C@@H](C(=O)[*:2])N(C)[*:1]; NMeL = CN[C@@H](CC(C)C)C(=O)O; NMeV = CN[C@H](C(=O)O)C(C)C; dNMeA = CN[C@H](C)C(=O)O; Abu = CC[C@H](N)C(=O)O
Kindly supply the reported CypB Kd values for the records listed here.

Recorded CypB Kd (molecule C/C=C/C[C@@H](C)[C@@H](O)[C@H]1C(=O)N[C@@H](CC)C(=O)N(C)[C@H](C)C(=O)N(C)[C@@H]([C@H](C)CO)C(=O)N[C@@H](C(C)C)C(=O)N(C)[C@@H](CC(C)C)C(=O)N[C@@H](C)C(=O)N[C@H](C)C(=O)N(C)[C@@H](CC(C)C)C(=O)N(C)[C@@H](CC(C)C)C(=O)N(C)[C@@H](C(C)C)C(=O)N1C [Compound 2.5.1] (cyclo(A[dA][NMeL][NMeL][NMeV][MeBmt][Abu][dNMeA][X24]V[NMeL])) ): 3.5

Query C/C=C/C[C@@H](C)[C@@H](O)[C@H]1C(=O)N[C@@H](CC)C(=O)N(C)[C@H](C)C(=O)N(C)[C@@H]([C@H](C)COC)C(=O)N[C@@H](C(C)C)C(=O)N(C)[C@@H](CC(C)C)C(=O)N[C@@H](C)C(=O)N[C@H](C)C(=O)N(C)[C@@H](CC(C)C)C(=O)N(C)[C@@H](CC(C)C)C(=O)N(C)[C@@H](C(C)C)C(=O)N1C yields CypB Kd of 1.45

In plain terms, C/C=C/C[C@@H](C)[C@@H](O)[C@H]1C(=O)N[C@@H](CC)C(=O)N(C)[C@H](C)C(=O)N(C)[C@@H]([C@H](C)CCC(=O)N2CCOCC2)C(=O)N[C@@H](C(C)C)C(=O)N(C)[C@@H](CC(C)C)C(=O)N[C@@H](C)C(=O)N[C@H](C)C(=O)N(C)[C@@H](CC(C)C)C(=O)N(C)[C@@H](CC(C)C)C(=O)N(C)[C@@H](C(C)C)C(=O)N1C [Compound 2.14.4] (cyclo(A[dA][NMeL][NMeL][NMeV][MeBmt][Abu][dNMeA][X52]V[NMeL])) has a documented CypB Kd of 1.5

Looking up C/C=C/C[C@@H](C)[C@@H](O)[C@H]1C(=O)N[C@@H](CC)C(=O)N(C)[C@H](C)C(=O)N(C)[C@@H]([C@H](C)COC(=O)N2CCN(CC)CC2)C(=O)N[C@@H](C(C)C)C(=O)N(C)[C@@H](CC(C)C)C(=O)N[C@@H](C)C(=O)N[C@H](C)C(=O)N(C)[C@@H](CC(C)C)C(=O)N(C)[C@@H](CC(C)C)C(=O)N(C)[C@@H](C(C)C)C(=O)N1C [Compound 2.5.24] (cyclo(A[dA][NMeL][NMeL][NMeV][MeBmt][Abu][dNMeA][X56]V[NMeL])) , I see its CypB Kd listed as 0.3

Record C/C=C/C[C@@H](C)[C@@H](O)[C@H]1C(=O)N[C@@H](CC)C(=O)N(C)[C@H](C)C(=O)N(C)[C@@H]([C@H](C)CCCOC(=O)N2CCN(C)CC2)C(=O)N[C@@H](C(C)C)C(=O)N(C)[C@@H](CC(C)C)C(=O)N[C@@H](C)C(=O)N[C@H](C)C(=O)N(C)[C@@H](CC(C)C)C(=O)N(C)[C@@H](CC(C)C)C(=O)N(C)[C@@H](C(C)C)C(=O)N1C [Compound 2.19.7] (cyclo(A[dA][NMeL][NMeL][NMeV][MeBmt][Abu][dNMeA][X70]V[NMeL])) , field CypB Kd: 0.7

Quick note, CypB Kd for C/C=C/C[C@@H](C)[C@@H](O)[C@H]1C(=O)N[C@@H](CC)C(=O)N(C)[C@H](C)C(=O)N(C)[C@@H]([C@H](C)CCCN2CC3CCC(C2)N3C)C(=O)N[C@@H](C(C)C)C(=O)N(C)[C@@H](CC(C)C)C(=O)N[C@@H](C)C(=O)N[C@H](C)C(=O)N(C)[C@@H](CC(C)C)C(=O)N(C)[C@@H](CC(C)C)C(=O)N(C)[C@@H](C(C)C)C(=O)N1C [Compound 2.19.3] (cyclo(A[dA][NMeL][NMeL][NMeV][MeBmt][Abu][dNMeA][X60]V[NMeL])) landed at 0.4

Form field CypB Kd, entry C/C=C/C[C@@H](C)[C@@H](O)[C@H]1C(=O)N[C@@H](CC)C(=O)N(C)[C@H](CC)C(=O)N(C)[C@@H]([C@H](C)COC)C(=O)N[C@@H](C(C)C)C(=O)N(C)[C@@H](CC(C)C)C(=O)N[C@@H](C)C(=O)N[C@H](C)C(=O)N(C)[C@@H](CC(C)C)C(=O)N(C)[C@@H](CC(C)C)C(=O)N(C)[C@@H](C(C)C)C(=O)N1C : 1.6

Measured CypB Kd of C/C=C/C[C@@H](C)[C@@H](O)[C@H]1C(=O)N[C@@H](CC)C(=O)N(C)[C@H](C)C(=O)N(C)[C@@H](C(COC)COC)C(=O)N[C@@H](C(C)C)C(=O)N(C)[C@@H](CC(C)C)C(=O)N[C@@H](C)C(=O)N[C@H](C)C(=O)N(C)[C@@H](CC(C)C)C(=O)N(C)[C@@H](CC(C)C)C(=O)N(C)[C@@H](C(C)C)C(=O)N1C [Compound 2.11] (cyclo(A[dA][NMeL][NMeL][NMeV][MeBmt][Abu][dNMeA][X15]V[NMeL])) : 1.3

According to the records, this molecule C/C=C/C[C@@H](C)[C@@H](O)[C@H]1C(=O)N[C@@H](CC)C(=O)N(C)[C@H](CCCO)C(=O)N(C)[C@@H]([C@H](C)CS(C)(=O)=O)C(=O)N[C@@H](C(C)C)C(=O)N(C)[C@@H](CC(C)C)C(=O)N[C@@H](C)C(=O)N[C@H](C)C(=O)N(C)[C@@H](CC(C)C)C(=O)N(C)[C@@H](CC(C)C)C(=O)N(C)[C@@H](C(C)C)C(=O)N1C (stereo in doubt) displays CypB Kd of 2.8
